protocol.conditions: 337.9 K; 101.33 kPa; Liquid; Vibrating tube method
Form field: mass density (one value per entry).
Numeric only. Scale: kg/m3

{"compound": "CC(=O)[O-].C[NH2+]CCO [N-methyl-2-hydroxyethylammonium acetate]", "mass density [kg/m3]": 1076.32}
{"compound": "CC(C)C(=O)[O-].C[NH2+]CCO [2-hydroxy-N-methylethanaminium isobutyrate]", "mass density [kg/m3]": 1017.01}

// mass density lookup, compound = C[NH2+]CCO.O=C[O-] [2-hydroxy-N-methylethanaminium formate] , result: 1106.53

Documented mass density of CCCC(=O)[O-].C[NH2+]CCO [N-methyl-2-hydroxyethylammonium butanoate] : 1011.86

Looking up CCCCC(=O)[O-].C[NH2+]CCO [2-hydroxy-N-methylethanaminium pentanoate] , I see its mass density listed as 988.872

Recorded result, CCC(=O)[O-].C[NH2+]CCO [2-hydroxy-N-methylethanaminium propionate] , mass density: 1044.75

Source listed as the NIST ThermoML archive (doi:10.1021/je900550v).
